Ref: ChEMBL document CHEMBL1130284

Quick reference: pIC50 of the listed items.
Test system: DU-145
Experiment: The IC50 value was measured on DU-145 cell line in prostate tumor type.
Format: functional, cell-based
Conditions: Homo sapiens
In textbook form, pIC50 equals minus log to base ten of the concentration in mol/L.

molecule | assay-target | numeric-result
Nc1nc(N)c2nc(CNc3ccc(C(=O)NC(CCNC(=O)c4ccccc4C(=O)O)C(=O)O)cc3)cnc2n1 (centres undefined) | DU-145 | 7.47

Ask: Using the record for Nc1nc(N)c2nc(CNc3ccc(C(=O)NC(CCCCNC(=O)c4ccccc4C(=O)O)C(=O)O)cc3)cnc2n1 (centres undefined) , report its pIC50.
Reply: 8.04

Ask: Thanks! And Nc1nc(N)c2nc(CNc3ccc(C(=O)NC(CCCNC(=O)c4ccccc4C(=O)O)C(=O)O)cc3)cnc2n1 (centres undefined) ?
Reply: 8.02

Ask: Thanks! And CN(Cc1cnc2nc(N)nc(N)c2n1)c1ccc(C(=O)N[C@@H](CCC(=O)O)C(=O)O)cc1 [METHOTREXATE] ?
Reply: 7.64
